All figures here come from patent US20190100602A1.

Below, each entry is listed with its recorded % antithrombin neutralization (factor Xa amidolytic activity on S-2765, with LMW-heparin).
- assay system: human antithrombin (human, UniProt P01008 33-464); also: test concentration or dose not given here
- Sequence (P01008 33-464 limits assumed): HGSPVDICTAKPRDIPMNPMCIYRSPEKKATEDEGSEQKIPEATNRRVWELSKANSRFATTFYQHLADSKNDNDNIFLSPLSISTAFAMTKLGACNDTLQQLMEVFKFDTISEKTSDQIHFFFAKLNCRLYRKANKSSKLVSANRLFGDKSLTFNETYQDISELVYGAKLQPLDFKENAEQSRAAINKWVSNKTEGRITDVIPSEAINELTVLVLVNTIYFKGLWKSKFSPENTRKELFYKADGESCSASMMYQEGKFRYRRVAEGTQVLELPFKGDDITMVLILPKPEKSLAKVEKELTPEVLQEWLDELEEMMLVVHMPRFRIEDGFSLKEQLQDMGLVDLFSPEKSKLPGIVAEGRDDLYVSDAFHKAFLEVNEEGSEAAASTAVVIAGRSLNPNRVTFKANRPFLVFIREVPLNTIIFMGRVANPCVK
- test method notes: cell-based or functional assay
Supply the numeric figure in %, leaving out any unit text.

Example entries and their recorded answers appear below.
>>> value_measured("KB-AT-001/003 (bispecific antibody) QVQLQESGGGLVQAGGSLRLSCAASGRTFRNYVMGWFRQAPGKDPEFIAGINRSGAITYYGDSVKGRFTISRDNAKNTVSLQMNSLEPEDTAVYYCAAGETTWSIRRDDYDYWGQGTQVTVSSGGGSGGGSGGGSGGGSQVQLQESGGGLVQPGGSLRLSCAASALTFSSRAWAWYRQAPGKQRELVASITGGGTTNYADSVKGRFTISRDNAKNTVYLQMNSLKPEDTAVHYCNGYRYTYAWGQGTQVTQVTVSS")
62
>>> value_measured("KB-AT-001/002 (bispecific antibody) QVQLQESGGGLVQAGGSLRLSCAASGRTFRNYVMGWFRQAPGKDPEFIAGINRSGAITYYGDSVKGRFTISRDNAKNTVSLQMNSLEPEDTAVYYCAAGETTWSIRRDDYDYWGQGTQVTVSSGGGSGGGSGGGSGGGSQVQLVQSGGGLVQAGGSLRLSCAASGRTFNNNGMGWFRQAPGKEREFVAAISWSGGSTYYADSVKGRYIMSRDNAKNTVYLQMNSLKPEDTAVYYCAARTRYNSGLFSRNYDYWGQGTQVTVSS")
57
>>> value_measured("KB-AT-002/003 (bispecific antibody) QVQLQESGGGLVQAGGSLRLSCAASGRTFNNNGMGWFRQAPGKEREFVAAISWSGGSTYYADSVKGRYIMSRDNAKNTVYLQMNSLKPEDTAVYYCAARTRYNSGLFSRNYDYWGQGTQVTVSSGGGSGGGSGGGSGGGSQVQLQESGGGLVQPGGSLRLSCAASALTFSSRAWAWYRQAPGKQRELVASITGGGTTNYADSVKGRFTISRDNAKNTVYLQMNSLKPEDTAVHYCNGYRYTYAWGQGTQVTVSS")
68

Lab note: next binder to report on.
Memo: KB-AT-001/005 (other) QVQLQESGGGLVQAGGSLRLSCAASGRTFRNYVMGWFRQAPGKDPEFIAGINRSGAITYYGDSVKGRFTISRDNAKNTVSLQMNSLEPEDTAVYYCAAGETTWSIRRDDYDYWGQGTQVTVSSGGGSGGGSGGGSGGGSEVQLVESGGGLVQPGGSLRLSCEASGRDFNDAALGWSRQVPGKARETVAMITSGGVRNYAETVKDRFTISRDNAKNTVYLDMNNLQPDDTGVYYCKADSFKGDYDTSWYLYWGQGTQVTVSS , reported % antithrombin neutralization (factor Xa amidolytic activity on S-2765, with LMW-heparin): 34
